assay: Coadministration of AEG and antibiotic PS-5: urinary recovery of antibiotic PS-5; type: in vivo, mice (male, ddY); details: mouse, urine, sc, 2 mg, Control group (water, PS-5 s.c.); 0-3 hrs
metric.name: dose excreted at 3 h (%)
Give the quantity in %, number only.

Quick check: dose excreted at 3 h of CC[C@H]1C(=O)N2C(C(=O)O)=C(SCCNC(C)=O)C[C@H]12 [antibiotic PS-5] ?
0

* * *

assay: Coadministration of AEG and antibiotic PS-5: plasma concentration of antibiotic PS-5; format: in vivo, mice (male, ddY); details: mouse, plasma, sc, 2 mg, Control group (water, PS-5 s.c.); 30 min
metric.name: concentration at 0.5 h (µg/mL)
Give the quantity in µg/mL, number only.

Quick check: concentration at 0.5 h of CC[C@H]1C(=O)N2C(C(=O)O)=C(SCCNC(C)=O)C[C@H]12 [antibiotic PS-5] ?
1

* * *

test: Coadministration of AEG and antibiotic PS-5: plasma concentration of antibiotic PS-5; assay type: in vivo, mice (male, ddY); details: mouse, plasma, sc, 2 mg, AEG administered group; 30 min after PS-5 s.c.
metric.name: concentration at 0.5 h
The answer consists of two parts: a number and, after it, its unit.

Quick check: concentration at 0.5 h of CC[C@H]1C(=O)N2C(C(=O)O)=C(SCCNC(C)=O)C[C@H]12 [antibiotic PS-5] ?
2300 ng/mL

* * *

molecular target: dipeptidase (Rattus norvegicus); construct: from tissue; host or cells: rat kidney, microsome fraction; assay: In vitro inhibition of partially purified rat kidney dipeptidase (spectrophotometric); assay type: biochemical; details: inhibitor 10^-4 M; pH 8.0, 37° C.; substrate of Table 1 (glycyldehydrophenylalanine or PS-5) not stated
Sequence (P31430 17-410): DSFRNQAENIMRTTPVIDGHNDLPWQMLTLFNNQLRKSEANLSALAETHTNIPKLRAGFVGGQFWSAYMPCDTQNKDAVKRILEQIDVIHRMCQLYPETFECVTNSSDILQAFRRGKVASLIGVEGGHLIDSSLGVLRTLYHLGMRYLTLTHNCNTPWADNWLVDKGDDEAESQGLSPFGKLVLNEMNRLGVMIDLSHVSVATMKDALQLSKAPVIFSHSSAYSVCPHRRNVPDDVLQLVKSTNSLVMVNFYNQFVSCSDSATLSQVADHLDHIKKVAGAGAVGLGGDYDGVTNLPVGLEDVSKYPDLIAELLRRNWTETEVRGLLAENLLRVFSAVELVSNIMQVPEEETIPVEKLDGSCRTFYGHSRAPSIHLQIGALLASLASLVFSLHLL
inhibition at 100 µM values by entry
Give the quantity in %, number only.

See these solved cases before continuing.
molecule	metric.name	units.text	result.number
NCCNCC(=O)O [Compound 1, N-(2-aminoethyl)glycine]	inhibition at 100 µM	%	86
C[C@H](NCCN)C(=O)O [Compound 3, N-(2-aminoethyl)-L-alanine]	inhibition at 100 µM	%	15.6
NCCSCC(=O)O [Compound 2, (2-aminoethyl)thioacetic acid]	inhibition at 100 µM	%	2
C[C@H](N)CNCC(=O)O [Compound 6, (S)-N-(2-aminopropyl)glycine]	inhibition at 100 µM	%	42.4
NCCN[C@@H](Cc1ccccc1)C(=O)O [Compound 4, N-(2-aminoethyl)-L-phenylalanine]	inhibition at 100 µM	%	38

Next molecule, inhibition at 100 µM to be filled in.
Quick check: inhibition at 100 µM of N[C@H](CNCC(=O)O)Cc1ccccc1 [Compound 5, (S)-[N-(2-amino-2-benzyl)ethyl]glycine] ?
85
